test_system: CD80-CD28 interaction (Homo sapiens)
Sequence (P33681 35-242 limits assumed): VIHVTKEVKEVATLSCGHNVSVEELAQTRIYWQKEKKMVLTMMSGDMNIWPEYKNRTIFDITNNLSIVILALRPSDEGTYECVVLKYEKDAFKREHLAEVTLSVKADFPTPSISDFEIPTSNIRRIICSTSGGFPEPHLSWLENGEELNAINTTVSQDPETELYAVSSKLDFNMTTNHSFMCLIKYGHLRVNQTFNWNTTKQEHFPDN
measurement_notes: Homogenous Time Resolved Fluorescence (HTRF) assay, cell free
Type: binding
measurement_context: cell-free HTRF, concentration series 100 μM-1.7 nM, 4 hours at room temperature; read-out: Activity (EC50 in the HTRF assay)
pEC50: −log10 of the molar value.
quantity_name: pEC50

What the record says about `O=C(NC1CCN(CCCCc2ccccc2)CC1)c1ccc(-n2[nH]c3c(nnc4c(F)cccc43)c2=O)cc1` : pEC50 is > 6.00

Consider `CC1CCN(CCCCNC(=O)c2ccc(-n3[nH]c4c(nnc5c(F)cccc54)c3=O)cc2)CC1` . Its measured pEC50 is > 6.00

For record O=C(NCC1CCCCCC1O)c1ccc(-n2[nH]c3c(nnc4c(F)cccc43)c2=O)cc1 (stereo not shown) the listed pEC50 is 5.00 to 6.00

Looking up `CC(C)(C)NCCCCNC(=O)c1ccc(-n2[nH]c3c(nnc4c(F)cccc43)c2=O)cc1` , I found its pEC50 recorded as > 6.00

Value of pEC50 reported for the compound `O=C(c1ccc(-n2[nH]c3c(nnc4c(F)cccc43)c2=O)cc1)N1CCCNCC1` is > 6.00

The reported value for CC1CCCCN1CCCCNC(=O)c1ccc(-n2[nH]c3c(nnc4c(F)cccc43)c2=O)cc1 (stereo not shown) in terms of pEC50 is > 6.00

Measured pEC50 of O=C(NCC1CCCCCCC1O)c1ccc(-n2[nH]c3c(nnc4c(F)cccc43)c2=O)cc1 (stereo not shown) : 5.00 to 6.00

The compound listed as CC1CC(C)CN(CCCCNC(=O)c2ccc(-n3[nH]c4c(nnc5c(F)cccc54)c3=O)cc2)C1 (stereo not shown) shows pEC50 equal to > 6.00

GET /value?item= `CN1C(C)(C)CC(NC(=O)c2ccc(-n3[nH]c4c(nnc5ccc(Cl)cc54)c3=O)cc2)CC1(C)C` &field=pEC50 returns > 6.00

Looking up `NCCCNC(=O)c1ccc(-n2[nH]c3c(nnc4c(F)cccc43)c2=O)cc1` , I found its pEC50 recorded as > 6.00

Per the records, this compound ( `CN(CCCNC(=O)c1ccc(-n2[nH]c3c(nnc4c(F)cccc43)c2=O)cc1)c1ccccc1` ) has pEC50 equal to 5.00 to 6.00

The compound listed as `CC1CCN(C(=O)c2ccc(-n3[nH]c4c(nnc5c(F)cccc54)c3=O)cc2)CC1` has a reported pEC50 of > 6.00

response.value for `CC(C)CN(CCCCNC(=O)c1ccc(-n2[nH]c3c(nnc4c(F)cccc43)c2=O)cc1)CC(C)C` (field: pEC50) = > 6.00
